All values here come from paper PMC5540273.

system: MAP3K2 (Homo sapiens, UniProt Q9Y2U5)
Sequence (Q9Y2U5 whole entry): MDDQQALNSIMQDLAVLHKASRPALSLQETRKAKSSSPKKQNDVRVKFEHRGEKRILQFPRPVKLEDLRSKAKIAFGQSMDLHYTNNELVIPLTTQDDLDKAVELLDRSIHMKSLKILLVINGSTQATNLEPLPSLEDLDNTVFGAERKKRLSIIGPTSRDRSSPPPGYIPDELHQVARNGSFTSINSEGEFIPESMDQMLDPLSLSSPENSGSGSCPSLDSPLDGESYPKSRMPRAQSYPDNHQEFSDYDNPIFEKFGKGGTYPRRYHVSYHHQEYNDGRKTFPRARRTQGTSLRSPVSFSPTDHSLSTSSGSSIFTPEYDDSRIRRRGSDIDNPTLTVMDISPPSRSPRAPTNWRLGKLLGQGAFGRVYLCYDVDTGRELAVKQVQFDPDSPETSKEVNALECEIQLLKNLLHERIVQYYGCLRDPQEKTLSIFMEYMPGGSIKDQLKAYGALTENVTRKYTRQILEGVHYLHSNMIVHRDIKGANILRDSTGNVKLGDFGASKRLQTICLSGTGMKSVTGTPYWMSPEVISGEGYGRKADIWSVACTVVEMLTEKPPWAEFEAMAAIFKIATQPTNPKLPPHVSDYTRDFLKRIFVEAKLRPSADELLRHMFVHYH
assayExplanation: KINOMEscan competition binding
testParameters: read-out: %Inh MAP3K2
readoutLabel: inhibition at 1 µM (%)

| molecule | readoutLabel | val |
| --- | --- | --- |
| COc1cccc(OC)c1C(=O)Nc1cccc(-c2nn3ccccc3c2-c2ccnc(Nc3cccc(F)c3)n2)c1 [UNC10225310A] | inhibition at 1 µM | 7 |
| Cc1ccc(NC(=O)Nc2cccc(C(F)(F)F)c2)cc1 [UNC10225187A] | inhibition at 1 µM | 0 |
| Cn1cc(-c2cnc(N)c3c(-c4ccc5c(c4)CCN5C(=O)Cc4ccccc4)csc23)cn1 [UNC10225012A] | inhibition at 1 µM | 75 |
| O=c1cc(N2CCOCC2)nc2n(Cc3cccc(Cl)c3Cl)c(C3CC3)nn12 [UNC10225469A] | inhibition at 1 µM | 0 |
| CS(=O)(=O)Cc1ccc(Nc2nccc(-c3c(-c4cccc(NC(=O)C5CCCCC5)c4)nn4ncccc34)n2)cc1 [UNC10225159A] | inhibition at 1 µM | 15 |

* * *

system: JNK2 (Homo sapiens)
Sequence (P45984 whole entry): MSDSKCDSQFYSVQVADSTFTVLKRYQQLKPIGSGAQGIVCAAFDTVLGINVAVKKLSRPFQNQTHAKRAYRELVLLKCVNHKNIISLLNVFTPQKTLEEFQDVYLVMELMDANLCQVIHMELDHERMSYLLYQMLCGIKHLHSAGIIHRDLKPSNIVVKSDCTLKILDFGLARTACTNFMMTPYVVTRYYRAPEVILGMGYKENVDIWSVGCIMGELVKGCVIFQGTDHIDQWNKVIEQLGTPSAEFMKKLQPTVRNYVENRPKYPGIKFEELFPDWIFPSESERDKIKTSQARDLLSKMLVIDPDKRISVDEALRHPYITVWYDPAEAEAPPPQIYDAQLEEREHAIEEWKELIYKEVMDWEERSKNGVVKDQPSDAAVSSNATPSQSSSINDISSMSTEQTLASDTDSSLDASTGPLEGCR
assayExplanation: KINOMEscan competition binding
testParameters: read-out: %Inh JNK2
readoutLabel: inhibition at 1 µM (%)

| compound | readoutLabel | val |
| --- | --- | --- |
| COc1cccc(OC)c1C(=O)Nc1cccc(-c2nn3ccccc3c2-c2ccnc(Nc3cccc(F)c3)n2)c1 [UNC10225310A] | inhibition at 1 µM | 0 |
| Cc1ccc(NC(=O)Nc2cccc(C(F)(F)F)c2)cc1 [UNC10225187A] | inhibition at 1 µM | 26 |
| Cn1cc(-c2cnc(N)c3c(-c4ccc5c(c4)CCN5C(=O)Cc4ccccc4)csc23)cn1 [UNC10225012A] | inhibition at 1 µM | 0 |
| O=c1cc(N2CCOCC2)nc2n(Cc3cccc(Cl)c3Cl)c(C3CC3)nn12 [UNC10225469A] | inhibition at 1 µM | 0 |
| CS(=O)(=O)Cc1ccc(Nc2nccc(-c3c(-c4cccc(NC(=O)C5CCCCC5)c4)nn4ncccc34)n2)cc1 [UNC10225159A] | inhibition at 1 µM | 49 |

* * *

In this section we review reported inhibition at 1 µM values for a set of compounds.
system: UniProt Q92772
Sequence (Q92772 whole entry): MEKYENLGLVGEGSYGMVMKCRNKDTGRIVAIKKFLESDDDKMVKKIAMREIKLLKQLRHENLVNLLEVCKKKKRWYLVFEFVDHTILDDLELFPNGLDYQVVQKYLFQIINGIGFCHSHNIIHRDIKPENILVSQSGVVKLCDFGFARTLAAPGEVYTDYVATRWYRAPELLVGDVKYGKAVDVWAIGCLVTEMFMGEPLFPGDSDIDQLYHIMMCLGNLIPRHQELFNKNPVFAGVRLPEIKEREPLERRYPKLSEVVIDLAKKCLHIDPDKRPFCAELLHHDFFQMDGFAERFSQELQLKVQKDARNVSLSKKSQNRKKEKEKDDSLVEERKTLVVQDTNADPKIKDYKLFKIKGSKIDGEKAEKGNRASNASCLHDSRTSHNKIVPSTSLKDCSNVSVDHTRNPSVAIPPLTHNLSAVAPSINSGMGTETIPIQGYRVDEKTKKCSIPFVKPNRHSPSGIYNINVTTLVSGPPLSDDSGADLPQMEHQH
assayExplanation: KINOMEscan competition binding
testParameters: read-out: %Inh CDKL2
readoutLabel: inhibition at 1 µM (%)

| compound | system | readoutUnit | val |
| --- | --- | --- | --- |
| CS(=O)(=O)Cc1ccc(Nc2nccc(-c3c(-c4cccc(NC(=O)C5CCCCC5)c4)nn4ncccc34)n2)cc1 [UNC10225159A] | UniProt Q92772 | % | 5 |
| Cc1ccc(NC(=O)Nc2cccc(C(F)(F)F)c2)cc1 [UNC10225187A] | UniProt Q92772 | % | 0 |
| Cn1cc(-c2cnc(N)c3c(-c4ccc5c(c4)CCN5C(=O)Cc4ccccc4)csc23)cn1 [UNC10225012A] | UniProt Q92772 | % | 0 |
| COc1cccc(OC)c1C(=O)Nc1cccc(-c2nn3ccccc3c2-c2ccnc(Nc3cccc(F)c3)n2)c1 [UNC10225310A] | UniProt Q92772 | % | 6 |
| O=c1cc(N2CCOCC2)nc2n(Cc3cccc(Cl)c3Cl)c(C3CC3)nn12 [UNC10225469A] | UniProt Q92772 | % | 0 |

* * *

system: UniProtKB Q9UQM7
Sequence (Q9UQM7 whole entry): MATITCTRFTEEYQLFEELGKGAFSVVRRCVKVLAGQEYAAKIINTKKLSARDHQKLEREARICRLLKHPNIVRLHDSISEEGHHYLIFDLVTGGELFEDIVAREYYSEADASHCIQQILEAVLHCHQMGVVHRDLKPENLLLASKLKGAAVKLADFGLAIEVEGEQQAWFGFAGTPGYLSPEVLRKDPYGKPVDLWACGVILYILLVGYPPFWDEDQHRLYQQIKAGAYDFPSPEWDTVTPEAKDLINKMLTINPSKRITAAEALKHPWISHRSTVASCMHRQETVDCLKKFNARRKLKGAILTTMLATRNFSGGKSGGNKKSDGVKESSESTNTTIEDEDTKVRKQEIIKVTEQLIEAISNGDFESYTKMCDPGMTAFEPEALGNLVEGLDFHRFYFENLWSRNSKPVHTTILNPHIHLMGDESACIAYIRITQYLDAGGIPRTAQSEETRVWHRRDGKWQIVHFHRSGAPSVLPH
assayExplanation: KINOMEscan competition binding
testParameters: read-out: %Inh CAMK2A
Use 30% as the dividing line for inhibition at 1 µM, with the line itself on the met side and lower values as not met.

| molecule | assignedCategory |
| --- | --- |
| O=c1cc(N2CCOCC2)nc2n(Cc3cccc(Cl)c3Cl)c(C3CC3)nn12 [UNC10225469A] | not met |
| Cc1ccc(NC(=O)Nc2cccc(C(F)(F)F)c2)cc1 [UNC10225187A] | met |
| CS(=O)(=O)Cc1ccc(Nc2nccc(-c3c(-c4cccc(NC(=O)C5CCCCC5)c4)nn4ncccc34)n2)cc1 [UNC10225159A] | not met |
| Cn1cc(-c2cnc(N)c3c(-c4ccc5c(c4)CCN5C(=O)Cc4ccccc4)csc23)cn1 [UNC10225012A] | not met |
| COc1cccc(OC)c1C(=O)Nc1cccc(-c2nn3ccccc3c2-c2ccnc(Nc3cccc(F)c3)n2)c1 [UNC10225310A] | not met |

* * *

Recorded inhibition at 1 µM values for a group of compounds are listed next.
system: DAPK3 (Homo sapiens, UniProt O43293)
Sequence (O43293 whole entry): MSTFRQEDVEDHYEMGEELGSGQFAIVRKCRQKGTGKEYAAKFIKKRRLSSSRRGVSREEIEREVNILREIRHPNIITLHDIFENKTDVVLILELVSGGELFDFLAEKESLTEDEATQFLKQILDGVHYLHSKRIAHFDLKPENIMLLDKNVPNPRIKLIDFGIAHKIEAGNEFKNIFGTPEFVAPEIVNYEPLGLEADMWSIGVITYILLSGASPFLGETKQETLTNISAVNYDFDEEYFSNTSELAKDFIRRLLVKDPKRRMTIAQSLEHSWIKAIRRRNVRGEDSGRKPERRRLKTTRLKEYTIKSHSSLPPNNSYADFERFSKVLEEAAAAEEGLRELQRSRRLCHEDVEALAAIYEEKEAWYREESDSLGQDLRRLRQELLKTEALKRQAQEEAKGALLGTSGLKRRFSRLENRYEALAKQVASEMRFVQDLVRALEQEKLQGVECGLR
assayExplanation: KINOMEscan competition binding
testParameters: read-out: %Inh DAPK3

| compound | inhibition at 1 µM [%] |
| --- | --- |
| Cn1cc(-c2cnc(N)c3c(-c4ccc5c(c4)CCN5C(=O)Cc4ccccc4)csc23)cn1 [UNC10225012A] | 7 |
| COc1cccc(OC)c1C(=O)Nc1cccc(-c2nn3ccccc3c2-c2ccnc(Nc3cccc(F)c3)n2)c1 [UNC10225310A] | 0 |
| O=c1cc(N2CCOCC2)nc2n(Cc3cccc(Cl)c3Cl)c(C3CC3)nn12 [UNC10225469A] | 6 |
| CS(=O)(=O)Cc1ccc(Nc2nccc(-c3c(-c4cccc(NC(=O)C5CCCCC5)c4)nn4ncccc34)n2)cc1 [UNC10225159A] | 0 |
| Cc1ccc(NC(=O)Nc2cccc(C(F)(F)F)c2)cc1 [UNC10225187A] | 24 |

* * *

system: ERK4 (Homo sapiens, UniProt P31152)
Sequence (P31152 whole entry): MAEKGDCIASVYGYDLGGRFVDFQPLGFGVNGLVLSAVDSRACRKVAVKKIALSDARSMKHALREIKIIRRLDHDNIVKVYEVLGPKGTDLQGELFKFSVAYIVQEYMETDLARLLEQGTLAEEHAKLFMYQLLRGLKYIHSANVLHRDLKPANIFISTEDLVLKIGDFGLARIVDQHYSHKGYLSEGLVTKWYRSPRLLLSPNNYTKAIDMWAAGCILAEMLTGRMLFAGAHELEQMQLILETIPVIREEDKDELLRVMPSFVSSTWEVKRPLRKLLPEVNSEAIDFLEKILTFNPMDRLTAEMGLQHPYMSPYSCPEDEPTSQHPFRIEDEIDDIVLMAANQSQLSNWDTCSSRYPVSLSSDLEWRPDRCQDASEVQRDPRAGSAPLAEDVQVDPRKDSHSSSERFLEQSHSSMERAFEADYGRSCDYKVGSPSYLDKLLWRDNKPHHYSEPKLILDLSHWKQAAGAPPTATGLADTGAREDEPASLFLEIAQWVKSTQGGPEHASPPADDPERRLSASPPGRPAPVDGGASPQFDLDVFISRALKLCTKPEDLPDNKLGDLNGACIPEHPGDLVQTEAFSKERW
assayExplanation: KINOMEscan competition binding
testParameters: read-out: %Inh ERK4
readoutLabel: inhibition at 1 µM (%)

| compound | system | readoutLabel | readoutUnit | val |
| --- | --- | --- | --- | --- |
| CS(=O)(=O)Cc1ccc(Nc2nccc(-c3c(-c4cccc(NC(=O)C5CCCCC5)c4)nn4ncccc34)n2)cc1 [UNC10225159A] | ERK4 (Homo sapiens, UniProt P31152) | inhibition at 1 µM | % | 3 |
| Cn1cc(-c2cnc(N)c3c(-c4ccc5c(c4)CCN5C(=O)Cc4ccccc4)csc23)cn1 [UNC10225012A] | ERK4 (Homo sapiens, UniProt P31152) | inhibition at 1 µM | % | 0 |
| COc1cccc(OC)c1C(=O)Nc1cccc(-c2nn3ccccc3c2-c2ccnc(Nc3cccc(F)c3)n2)c1 [UNC10225310A] | ERK4 (Homo sapiens, UniProt P31152) | inhibition at 1 µM | % | 9 |
| Cc1ccc(NC(=O)Nc2cccc(C(F)(F)F)c2)cc1 [UNC10225187A] | ERK4 (Homo sapiens, UniProt P31152) | inhibition at 1 µM | % | 0 |
| O=c1cc(N2CCOCC2)nc2n(Cc3cccc(Cl)c3Cl)c(C3CC3)nn12 [UNC10225469A] | ERK4 (Homo sapiens, UniProt P31152) | inhibition at 1 µM | % | 0 |

* * *

system: JNK1 (Homo sapiens)
Sequence (P45983 whole entry): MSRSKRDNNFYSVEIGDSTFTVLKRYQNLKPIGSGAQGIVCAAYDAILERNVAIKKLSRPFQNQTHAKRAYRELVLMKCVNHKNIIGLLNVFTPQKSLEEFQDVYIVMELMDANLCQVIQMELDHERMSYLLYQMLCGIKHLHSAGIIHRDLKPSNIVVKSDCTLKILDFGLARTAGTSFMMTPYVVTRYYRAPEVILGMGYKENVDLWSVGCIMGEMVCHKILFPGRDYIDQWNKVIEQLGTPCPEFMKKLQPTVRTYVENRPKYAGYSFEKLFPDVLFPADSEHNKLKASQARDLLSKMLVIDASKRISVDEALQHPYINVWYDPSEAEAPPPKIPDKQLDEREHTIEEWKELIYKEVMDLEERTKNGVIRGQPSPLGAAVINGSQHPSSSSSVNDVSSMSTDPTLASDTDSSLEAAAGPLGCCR
assayExplanation: KINOMEscan competition binding
testParameters: read-out: %Inh JNK1
# Lookup of reported inhibition at 1 µM keyed by entry

| compound | inhibition at 1 µM (%) |
| --- | --- |
| O=c1cc(N2CCOCC2)nc2n(Cc3cccc(Cl)c3Cl)c(C3CC3)nn12 [UNC10225469A] | 19 |
| COc1cccc(OC)c1C(=O)Nc1cccc(-c2nn3ccccc3c2-c2ccnc(Nc3cccc(F)c3)n2)c1 [UNC10225310A] | 44 |
| Cn1cc(-c2cnc(N)c3c(-c4ccc5c(c4)CCN5C(=O)Cc4ccccc4)csc23)cn1 [UNC10225012A] | 13 |
| Cc1ccc(NC(=O)Nc2cccc(C(F)(F)F)c2)cc1 [UNC10225187A] | 58 |
| CS(=O)(=O)Cc1ccc(Nc2nccc(-c3c(-c4cccc(NC(=O)C5CCCCC5)c4)nn4ncccc34)n2)cc1 [UNC10225159A] | 43 |

* * *

system: BRSK2 (Homo sapiens)
Sequence (Q8IWQ3 1-736): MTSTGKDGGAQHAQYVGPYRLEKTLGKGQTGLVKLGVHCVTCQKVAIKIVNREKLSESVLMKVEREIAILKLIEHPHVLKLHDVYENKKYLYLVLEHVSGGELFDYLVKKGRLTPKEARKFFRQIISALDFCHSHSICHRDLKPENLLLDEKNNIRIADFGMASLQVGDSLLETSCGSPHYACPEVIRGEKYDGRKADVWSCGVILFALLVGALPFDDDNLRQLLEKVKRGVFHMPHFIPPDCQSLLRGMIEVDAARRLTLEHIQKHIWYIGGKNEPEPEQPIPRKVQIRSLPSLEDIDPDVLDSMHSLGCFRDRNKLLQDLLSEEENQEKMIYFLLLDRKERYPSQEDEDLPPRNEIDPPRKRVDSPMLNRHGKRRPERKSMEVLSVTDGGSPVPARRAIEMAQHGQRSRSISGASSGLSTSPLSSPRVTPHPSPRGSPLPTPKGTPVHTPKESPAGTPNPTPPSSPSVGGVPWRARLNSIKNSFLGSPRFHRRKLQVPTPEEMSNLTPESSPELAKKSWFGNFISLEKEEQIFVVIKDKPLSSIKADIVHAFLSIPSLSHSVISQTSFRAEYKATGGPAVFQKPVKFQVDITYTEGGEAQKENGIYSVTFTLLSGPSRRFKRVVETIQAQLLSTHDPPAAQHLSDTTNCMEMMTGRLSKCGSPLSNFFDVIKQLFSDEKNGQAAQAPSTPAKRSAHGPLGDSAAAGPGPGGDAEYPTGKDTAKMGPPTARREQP
assayExplanation: KINOMEscan competition binding
testParameters: read-out: %Inh BRSK2
# inhibition at 1 µM per record follows

| compound | inhibition at 1 µM / % |
| --- | --- |
| Cn1cc(-c2cnc(N)c3c(-c4ccc5c(c4)CCN5C(=O)Cc4ccccc4)csc23)cn1 [UNC10225012A] | 7 |
| O=c1cc(N2CCOCC2)nc2n(Cc3cccc(Cl)c3Cl)c(C3CC3)nn12 [UNC10225469A] | 0 |
| CS(=O)(=O)Cc1ccc(Nc2nccc(-c3c(-c4cccc(NC(=O)C5CCCCC5)c4)nn4ncccc34)n2)cc1 [UNC10225159A] | 0 |
| Cc1ccc(NC(=O)Nc2cccc(C(F)(F)F)c2)cc1 [UNC10225187A] | 0 |
| COc1cccc(OC)c1C(=O)Nc1cccc(-c2nn3ccccc3c2-c2ccnc(Nc3cccc(F)c3)n2)c1 [UNC10225310A] | 16 |
